# Test system: ACHN renal
# assay details: NCI tumour cell line growth inhibition, 48 h; in the data active = GI50 below about 0.43 µM; inactive = the rest
In this exercise, the only acceptable responses are active, inactive

COc1cc2cc(Oc3ccc(NC(=O)c4cccc(C(F)(F)F)c4)cc3)c(C)nc2cc1OC	inactive
C/C(=N\O)c1ccc(Nc2cc(-n3nnc4ccccc43)nc3ccccc23)cc1	inactive
N/C(=N\OC(=O)c1ccccc1)C(C(=O)NOC(=O)c1ccccc1)C1CCCCC1 (stereo unspecified)	inactive
COc1cc(/C=C2\CN(C)CC3=C2Nc2nc(SC)[nH]c(=O)c2C3c2cc(OC)c(OC)c(OC)c2)cc(OC)c1OC (stereo unspecified)	inactive
Cc1cccc(NC(=O)c2sc3nc4c(cc3c2N)CCCC4)c1C	inactive
CNC(=O)Nc1ccc(-c2nc(N3CCOCC3)nc3c2cnn3C2CCOCC2)cc1	active
C[C@]12CC[C@@H]3c4ccc(O)c([N+](=O)[O-])c4CC[C@H]3[C@@H]1CC[C@@H]2NS(=O)(=O)c1ccc(C(F)(F)F)cc1	inactive
COc1cc(C2c3cc4c(cc3[C@@H](Nc3ccc(N(C)C)cc3)[C@H]3COC(=O)C23)OCO4)cc(OC)c1O (stereo partly specified)	active

State the result this test recorded for CC(C)N(C(C)C)[PH+]1O[PH+](N(C(C)C)C(C)C)O[PH+](N(C(C)C)C(C)C)O[PH+](N(C(C)C)C(C)C)O[PH+](N(C(C)C)C(C)C)O1.[C-]#[O+].[C-]#[O+].[C-]#[O+].[C-]#[O+].[C-]#[O+].[C-]#[O+].[C-]#[O+].[Cr].[Cr] (stereo unspecified) . inactive

State the result this test recorded for COc1ccc(Cl)cc1Nc1nc(C(F)(F)F)ccc1C(=O)NN . inactive

State the result this test recorded for COc1cc(Nc2ccnc(N3CCN(c4ccnc5cc(Cl)ccc45)CC3)n2)cc(OC)c1 . inactive
